# assay-target: BoLA-DRB3*2703 class II molecule (bovine)
Ends that are not written are not given here.
reported-endpoint: IC50 (µM)
I only need the number, in µM, no unit after it.

Problem: Please look up its IC50: SIINNYYMQQYQNSM (not fully specified) [FMD-VP4[20-34]]
Result: 46.5
